molecular target: human TLR8 (Homo sapiens, UniProt Q9NR97); construct: host or cells: HEK-Blue cells; experiment: TLR8 inhibition reporter assay (HEK-Blue cells, SEAP reporter, R848 stimulation); format: cell-based; conditions: HEK-Blue cells overexpressing human TLR8, SEAP reporter, R848 15.9 μM; read-out: TLR8 IC50
pIC50: −log10 of the molar value.
Threshold check on pIC50: at or above 8 gives fulfilled, strictly below gives not fulfilled.

Previously resolved entries follow.
{"compound": "COC(C)(C)CNC1CCC(c2nc3c(C(C)C)c(-c4cn(C)c(=O)c(C)c4C)[nH]c3s2)CC1 (single isomer, unassigned) [Example 244]", "qualitative-label": "not fulfilled"}
{"compound": "Cc1cc2ncnn2cc1-c1[nH]c2sc(C3CCC(N4CCCOCC4)CC3)nc2c1C(C)C (single isomer, unassigned) [Example 146]", "qualitative-label": "fulfilled"}
{"compound": "CCN(C)C1CCC(c2nc3c(C(C)C)c(-c4cn(C)c(=O)c(C)c4C)[nH]c3s2)CC1 (single isomer, unassigned) [Example 247]", "qualitative-label": "fulfilled"}
{"compound": "Cc1cc2ncnn2cc1-c1[nH]c2sc(C3CCC(N4CCCC4)CC3)nc2c1C(C)C (single isomer, unassigned) [Example 155]", "qualitative-label": "not fulfilled"}
{"compound": "CCN1CCN(c2nc3c(C(C)C)c(-c4cn5ncnc5c(C)c4C)[nH]c3s2)[C@H](C)C1", "qualitative-label": "fulfilled"}

## Task I'd appreciate it if you could say whether Cc1c(-c2[nH]c3sc(C4CCC(N5CC6(COC6)C5)CC4)nc3c2C(C)C)cn2ncnc2c1C (single isomer, unassigned) [Example 193] has pIC50 at least equal to 8.
## Result fulfilled

## Task Record: Cc1c(-c2[nH]c3sc(C4CCC(N(C)C(C)C)CC4)nc3c2C(C)C)cn2ncnc2c1C (single isomer, unassigned) [Example 222]
## Result fulfilled

====

Target: human TLR8 (Homo sapiens, UniProt Q9NR97)
Construct: host or cells: HEK-Blue cells
Sequence (Q9NR97 27-1041): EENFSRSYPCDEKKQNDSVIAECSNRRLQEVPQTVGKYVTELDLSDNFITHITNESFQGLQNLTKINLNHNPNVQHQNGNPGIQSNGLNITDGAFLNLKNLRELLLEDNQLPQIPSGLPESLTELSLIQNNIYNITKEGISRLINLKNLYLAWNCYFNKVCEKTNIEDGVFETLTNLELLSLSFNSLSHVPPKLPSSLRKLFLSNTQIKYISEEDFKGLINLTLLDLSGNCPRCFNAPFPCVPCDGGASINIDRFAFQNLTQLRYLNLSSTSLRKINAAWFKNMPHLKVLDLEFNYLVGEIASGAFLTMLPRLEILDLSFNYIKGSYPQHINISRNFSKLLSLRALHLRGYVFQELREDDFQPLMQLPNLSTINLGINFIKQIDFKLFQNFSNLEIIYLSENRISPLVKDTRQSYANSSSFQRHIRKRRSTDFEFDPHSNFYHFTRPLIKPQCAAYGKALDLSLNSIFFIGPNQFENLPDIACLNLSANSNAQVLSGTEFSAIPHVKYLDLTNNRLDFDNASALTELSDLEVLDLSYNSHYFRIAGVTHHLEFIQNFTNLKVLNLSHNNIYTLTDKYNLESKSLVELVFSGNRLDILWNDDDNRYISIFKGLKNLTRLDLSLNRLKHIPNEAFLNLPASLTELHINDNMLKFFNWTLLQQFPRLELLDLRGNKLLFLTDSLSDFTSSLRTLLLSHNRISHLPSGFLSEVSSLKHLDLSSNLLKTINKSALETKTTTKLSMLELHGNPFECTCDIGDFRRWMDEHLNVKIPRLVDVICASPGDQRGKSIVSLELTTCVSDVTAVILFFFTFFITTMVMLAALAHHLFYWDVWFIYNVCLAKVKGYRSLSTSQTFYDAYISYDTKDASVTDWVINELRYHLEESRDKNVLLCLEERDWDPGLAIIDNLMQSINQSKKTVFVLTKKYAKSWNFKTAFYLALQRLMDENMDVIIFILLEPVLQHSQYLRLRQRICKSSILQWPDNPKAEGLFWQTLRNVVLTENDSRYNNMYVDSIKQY
Experiment: TLR8 inhibition reporter assay (HEK-Blue cells, SEAP reporter, R848 stimulation)
Type: cell-based
Settings: HEK-Blue cells overexpressing human TLR8, SEAP reporter, R848 15.9 μM; read-out: TLR8 IC50
pIC50: −log10 of the molar value.
Threshold check on pIC50: at or above 8 gives Criterion met, strictly below gives Criterion not met.

Previously resolved entries follow.
{"molecule": "COC(C)(C)CNC1CCC(c2nc3c(C(C)C)c(-c4cn(C)c(=O)c(C)c4C)[nH]c3s2)CC1 (single isomer, unassigned) [Example 243]", "qualitative-label": "Criterion met"}
{"molecule": "Cc1c(-c2[nH]c3sc(C4CCC(N5CC(F)C5)CC4)nc3c2C(C)C)cn(C)c(=O)c1C (single isomer, unassigned) [Example 265]", "qualitative-label": "Criterion met"}

## Task I'd appreciate it if you could say whether Cc1c(-c2[nH]c3sc(N4CCN(CCS(C)(=O)=O)C[C@H]4C)nc3c2C(C)C)cn2ncnc2c1C has pIC50 at least equal to 8.
## Result Criterion not met

## Task Record: COc1cc(-c2[nH]c3sc(C4CCC(N5CCC5)CC4)nc3c2C(C)C)cn2ncnc12 (single isomer, unassigned) [Example 76]
## Result Criterion met

## Task Record: Cc1c(-c2[nH]c3sc(C4CCC(N5CCC5)CC4)nc3c2C(C)C)cn(C)c(=O)c1C (single isomer, unassigned) [Example 256]
## Result Criterion not met

====

Biological target: human TLR8 (Homo sapiens, UniProt Q9NR97)
Construct: host or cells: HEK-Blue cells
Sequence (Q9NR97 27-1041): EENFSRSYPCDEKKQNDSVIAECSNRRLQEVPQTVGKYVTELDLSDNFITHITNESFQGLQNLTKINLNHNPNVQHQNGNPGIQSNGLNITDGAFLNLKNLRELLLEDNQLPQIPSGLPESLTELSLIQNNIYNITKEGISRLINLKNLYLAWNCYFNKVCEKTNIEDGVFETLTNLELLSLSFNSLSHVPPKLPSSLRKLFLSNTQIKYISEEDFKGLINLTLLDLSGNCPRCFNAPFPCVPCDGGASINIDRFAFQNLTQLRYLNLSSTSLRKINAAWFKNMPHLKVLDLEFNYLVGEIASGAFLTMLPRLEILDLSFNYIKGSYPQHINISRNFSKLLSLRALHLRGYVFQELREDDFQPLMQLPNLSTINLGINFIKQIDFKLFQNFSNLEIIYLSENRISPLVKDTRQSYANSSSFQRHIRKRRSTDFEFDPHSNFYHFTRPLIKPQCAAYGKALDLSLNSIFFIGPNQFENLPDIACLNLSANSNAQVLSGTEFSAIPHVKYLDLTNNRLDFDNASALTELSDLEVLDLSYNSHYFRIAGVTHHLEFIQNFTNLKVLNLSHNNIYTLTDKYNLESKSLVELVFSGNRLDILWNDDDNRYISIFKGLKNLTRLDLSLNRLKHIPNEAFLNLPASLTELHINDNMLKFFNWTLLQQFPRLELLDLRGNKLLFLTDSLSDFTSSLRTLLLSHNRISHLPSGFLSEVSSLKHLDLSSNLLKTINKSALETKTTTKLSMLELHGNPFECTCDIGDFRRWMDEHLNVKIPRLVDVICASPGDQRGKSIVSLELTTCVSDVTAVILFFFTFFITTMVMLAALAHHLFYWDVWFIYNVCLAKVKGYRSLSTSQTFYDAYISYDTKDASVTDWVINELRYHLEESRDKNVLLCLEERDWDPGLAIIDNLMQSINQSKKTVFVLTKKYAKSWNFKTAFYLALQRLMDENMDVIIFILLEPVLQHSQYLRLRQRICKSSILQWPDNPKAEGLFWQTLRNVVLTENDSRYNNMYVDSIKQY
Experiment: TLR8 inhibition reporter assay (HEK-Blue cells, SEAP reporter, R848 stimulation)
Type: cell-based
Conditions: HEK-Blue cells overexpressing human TLR8, SEAP reporter, R848 15.9 μM; read-out: TLR8 IC50
measure-name: pIC50
Scale note: pIC50 = -log10(concentration in M).

{"compound": "COc1cc(-c2[nH]c3sc(C4CCC(N5CCC6(CCNC6)C5)CC4)nc3c2C(C)C)cn2ncnc12 (single isomer, unassigned) [Example 115]", "pIC50": 7.77}
{"compound": "Cc1c(-c2[nH]c3sc(C4CCN(CC(N)=O)CC4)nc3c2C(C)C)cn(C)c(=O)c1C", "pIC50": 7.98}

As a next step, examine the compound that follows.
## Task Requested read-out pIC50, target or system human TLR8 (Homo sapiens, UniProt Q9NR97), entry Cc1c(-c2[nH]c3sc(C4CCC(N(C)C(C)C)CC4)nc3c2C(C)C)cn2ncnc2c1C (single isomer, unassigned) [Example 223]
## Result 7.99
